measurement protocol: Pharmacokinetic study in Balb/c mice by oral administration and intravenous injection
Type: in vivo
run conditions: mouse, 3 mg/kg; Balb/c female mice, PO 3 mpk, plasma; read-out: Peak concentration Cmax
experimental readout: Cmax (nM)
Please state the figure in nM; there is no need to write the unit.

For CC1(NC(=O)C(=O)c2c(Cl)c(C(=O)Nc3cc(F)c(F)c(F)c3)c3n2CCC3)CCC(CC(=O)O)CC1 (stereo not shown) , write its Cmax.
1480

###

measurement protocol: Pharmacokinetic study in Balb/c mice by oral administration and intravenous injection
Format: in vivo
run conditions: mouse; Balb/c female mice, IV 1 mg/kg, plasma; read-out: Apparent volume of distribution (Vdss)
experimental readout: Vd (L/kg)
Your answer is read as L/kg, so omit the unit and give the number.

Given the compound CC1(NC(=O)C(=O)c2c(Cl)c(C(=O)Nc3cc(F)c(F)c(F)c3)c3n2CCC3)CCC(CC(=O)O)CC1 (stereo not shown) [Compound of formula (I)] , write its reported Vd.
3.1

###

measurement protocol: Pharmacokinetic study in Balb/c mice by oral administration and intravenous injection
Assay type: in vivo
run conditions: mouse, 3 mg/kg; Balb/c female mice, PO 3 mpk, plasma; read-out: Peak time Tmax
experimental readout: Tmax (min)
The figure you give is taken to be in min; do not add the unit.

Annotate the compound CC1(NC(=O)C(=O)c2c(Cl)c(C(=O)Nc3cc(F)c(F)c(F)c3)c3n2CCC3)CCC(CC(=O)O)CC1 (stereo not shown) with its measured Tmax.
30

###

measurement protocol: Metabolic stability in liver microsomes of beagle dogs
Format: in vitro ADME
run conditions: dog; Beagle dogs liver microsomes, 1 μM compound, 0.5 mg/mL
experimental readout: half-life at 1 μM

Give the reported half-life at 1 μM for this compound. CC1(NC(=O)C(=O)c2c(Cl)c(C(=O)Nc3cc(F)c(F)c(F)c3)c3n2CCC3)CCC(CC(=O)O)CC1 (stereo not shown)
> 2.42 h

###

measurement protocol: Metabolic stability in liver microsomes of beagle dogs
Format: in vitro ADME
run conditions: dog; Beagle dogs liver microsomes
experimental readout: CLint scaled at 1 μM

Fill in CLint scaled at 1 μM for record CC1(NC(=O)C(=O)c2c(Cl)c(C(=O)Nc3cc(F)c(F)c(F)c3)c3n2CCC3)CCC(CC(=O)O)CC1 (stereo not shown)
< 13.8 mL/min/kg

###

measurement protocol: Pharmacokinetic study in Balb/c mice by oral administration and intravenous injection
Type: in vivo
run conditions: mouse, plasma, 3 mg/kg; Balb/c female mice, PO 3 mpk vs IV 1 mg/kg; read-out: Bioavailability (F %)
experimental readout: bioavailability

Name the recorded bioavailability of the item CC1(NC(=O)C(=O)c2c(Cl)c(C(=O)Nc3cc(F)c(F)c(F)c3)c3n2CCC3)CCC(CC(=O)O)CC1 (stereo not shown) in your answer.
51%
